assay: SK-BR-3 cell growth inhibitors, pilot screen, 24 h, human (AID 572); settings: SK-BR-3 viability, CellTiter-Glo luminescence, at 10 µM, stronger effect = lower value;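 further: compound exposure lasted between 18 and 24 h rather than exactly 24 h; 100% = carrier-treated control wells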
Quantity Measured: viability (%)
Answers are plain numbers, in %.

Example compounds with recorded viability:
O=C(CSc1nc2ccccc2[nH]1)N1CCCCC1
106
C/C(Cl)=C/Cn1c(SCc2ccc(Cl)cc2)nc2c1c(=O)[nH]c(=O)n2C
102

// each listed compound needs a value for viability
1. Cc1nnc(N(C)C(=O)Cc2ccc3c(c2)OCO3)s1
2. COc1ccc(CCNC(=O)CSCc2n[nH]c(=O)[nH]2)cc1OC

94
110

Quick request: viability for each listed item, please.
1. COc1ccc(C)cc1-n1c(N)c(C#N)c(C#N)c1-c1ccc(OC)c(OC)c1OC
2. CCCNC(=O)c1cc(S(=O)(=O)N2CCc3ccccc32)ccc1F
3. O=C(Nc1ccc(N2CCOCC2)cc1)Nc1ccc2nc(-c3ccco3)c(-c3ccco3)nc2c1
4. Cc1cc(C(=O)Nc2c(F)cc(F)cc2Br)no1
5. COc1ccc(/C=N/n2cc(-c3ccc(OC)cc3)nc2N)cc1
6. O=C(Nc1cccc(OCC(=O)N2CCOCC2)c1)C1CCCCC1
7. C=CCn1c(COc2cccc(C)c2)nnc1SCC(=O)NC(=O)NCc1ccco1
8. O=C1NC2c3ccccc3C(=O)N2c2c1cnn2-c1ccccc1 (configuration not stated)

1. 97
2. 89
3. 71.5
4. 99
5. 85
6. 109
7. 108
8. 98

* * *

test: reversal of MRP1-mediated doxorubicin resistance, pilot screen, H69AR cells, doxorubicin co-treatment (AID 601); settings: H69AR cells, CellTiter-Glo, 72 h; compound alone cytotoxicity; at 10 µM
Quantity Measured: viability (%)
Give bare numbers, in %.

O=C(O)CCn1c(=O)c2ccccc2c2ccccc2c1=O
100
CCn1cc(C(=O)O)c(=O)c2cc(F)c(N3CCNCC3)cc21
92.1
CCCCOc1ccc(N(CC(=O)NC2CCCC2)C(=O)CCC(=O)Nc2ccccn2)cc1
69.4
O=C(CCN1C(=O)c2ccccc2C1=O)N1CCN(C(=O)c2ccccc2)CC1
101
O=C1c2ccccc2C(=O)N1c1cccc(-c2nc3ccccc3o2)c1
111
O=C(Nc1ccc(F)cc1)N(Cc1ccco1)Cc1cc2cc3c(cc2[nH]c1=O)OCO3
55
COC(=O)CN(Cc1ccco1)S(=O)(=O)c1ccccc1
77.6
CC(C)(C)c1ccc(C(O)CCCN2CCC(C(O)(c3ccccc3)c3ccccc3)CC2)cc1 (stereo unspecified)
1.54
O=C(NC1CC2CCC1C2)C1COc2ccccc2O1 (stereo unspecified)
87.9
S=C(NCC1CCCO1)n1nnc2ccccc21 (stereo unspecified)
74.8

Here is the next item to consider.
I would be grateful if you could share the reported viability for C/C(=C\C(=O)O)CC(=O)O .
84.5

* * *

test: HUVEC growth inhibition – cell-based, human, primary screen (AID 575); conditions: HUVEC proliferation, CellTiter-Glo luminescence, 72 h; at 10 µM; stronger effect = lower value;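 further: 100% = median of untreated cell wells with 0.1% DMSO on each plate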
I'd be grateful if you could share measured viability for these entries.
Numbers only, in %.

// known answers, use as guide
CNC(=O)CSc1nc2c(c(=O)n(C)c(=O)n2C)n1Cc1ccc(C)cc1
92.4
COc1ccc(CN2C(=O)c3ccccc3C2C(=O)NC2CCCC2)c(OC)c1 (stereo not given)
104
Cc1c(NC(=O)c2ccc(COc3ccc4ccccc4c3)o2)c(=O)n(-c2ccccc2)n1C
91.2
CCOc1ccc(-c2nc(C#N)c(NCc3ccc4c(c3)OCO4)o2)cc1
58.8

Hi! Can you tell me viability for each of these compounds?
1. O=C(CN1CCN(c2nc(-c3ccc(Cl)cc3)cs2)CC1)NCc1ccco1
2. CN1CCN(C(=O)NC2CCCN2S(=O)(=O)c2ccc(Cl)cc2)CC1 (stereo not given)

[95.6, 96.4]

Please give viability for each item listed below.
1. CCOC(=O)CSc1nc2ccccc2n1CC(=O)N1CCN(c2ccccc2)CC1
2. COC(=O)c1cccc(NC(=O)CN2CCN(Cc3ccccc3)CC2)c1
3. Cc1ccc(N(C(C)C(=O)Nc2ccc(S(=O)(=O)N3CCOCC3)cc2)S(C)(=O)=O)cc1 (stereo not given)
4. CC(C)OC(=O)CCCCCN1C(=O)CSC1=S
5. Cc1ccc(OCC(=O)N2CCN(C(=O)CCC3CCCC3)CC2)cc1

[87.2, 105, 106, 86.7, 94.6]

Quick batch: viability for everything below.
1. NS(=O)(=O)c1ccc(CCNC(=O)CCC2COc3ccccc3O2)cc1 (stereo not given)
2. Cc1cc(=O)n2nc(N3CCCC(C(=O)N4CCN(C)CC4)C3)sc2n1 (stereo not given)
3. COC(=O)COc1ccc(C(=O)OC)cc1
4. COc1ccc(C(O)C(CN2CCOCC2)c2ccccc2)cc1F (stereo not given)
5. CC(C)Cn1c(=O)c(C(=O)NCc2ccccn2)c(O)c2ccccc21
6. O=C(COC(=O)c1cnccn1)c1ccc(OC(=O)c2ccccc2)cc1
7. COc1ccccc1NS(=O)(=O)c1ccc(OC)c(OC)c1
8. CCOc1cccc(Oc2ccc(C(F)(F)F)cn2)c1

105
101
92.8
109
61.4
87.8
91.6
99.6

For every item in the list below, what is its measured viability?
1. CCOc1ccc(OCC)c(NC(=O)C2CCN(c3ncccn3)CC2)c1
2. N#CC1=C(N)OC2=C(C(=O)CCC2)C1CCc1ccccc1 (stereo not given)
3. O=C(CC(Cc1ccccc1)C(=O)O)NCCc1ccc2c(c1)OCO2 (stereo not given)
4. O=C(NCc1ccco1)Nc1ccc2nsnc2c1
5. O=C(Nc1ccc(Cl)cc1C(=O)O)c1ccc2c(c1)C(=O)N(Cc1ccco1)C2=O

1. 105
2. 91.9
3. 92
4. 51.5
5. 86.6

Fill in viability for each of the 6 compounds listed.
1. CCOc1ccc(-c2nc(S(=O)(=O)c3ccccc3)c(NCc3cccnc3)o2)cc1
2. C1CCC(C(CC2CCCCN2)C2CCCCC2)CC1 (stereo not given)
3. O=C(NCCSCc1ccco1)Nc1cccc(Cl)c1
4. CCOC(=O)CC(NS(=O)(=O)c1ccc(NC(C)=O)cc1)c1ccc(OCC)cc1 (stereo not given)
5. CC1CCCC(C)N1CCNC(=O)C1CCN(S(=O)(=O)N2CCCCC2)CC1 (stereo not given)
6. CC(=O)Nc1ccc(S(=O)(=O)N2CCN(Cc3ccncc3)CC2)cc1

1: 94.2; 2: 2.58; 3: 63.6; 4: 110; 5: 110; 6: 90.7

Consider the following items and state reported viability for each.
1. O=C(CCSc1nc(-c2ccco2)cc(C(F)(F)F)n1)NCCc1ccccc1
2. Cc1cccc(C)c1-n1nnnc1SCSc1nnnn1-c1c(C)cccc1C

1: 80.7; 2: 66.8

Provide each entry's viability from the list below.
1. O=C(NCCCN1CCN(Cc2ccccc2)CC1)C1CCN(c2nnc(-n3cccc3)s2)CC1
2. O=C(CNC(=O)c1cccs1)NCCN1CCN(c2ccccc2F)CC1
3. Cc1cc(C(=O)CSCCCn2c(=O)[nH]c3ccccc32)c(C)n1C

1. 97.1
2. 101
3. 110

// for each compound in input: emit viability
1. Cc1ccc2nsnc2c1S(=O)(=O)N1CCN(Cc2ccc3c(c2)OCO3)CC1
2. Cc1nc(C)c(C(=O)OCC(=O)N2CCN(c3ccccc3)CC2)s1
3. Cc1occc1-c1nnc(SCC(=O)N2CCOCC2)n1Cc1ccco1
4. O=C(CSc1nc(O)cc(=O)n1-c1ccccc1)N1CCCCC1
5. CC1CCN(CCc2nc3cc(NS(=O)(=O)c4ccc(F)cc4)ccc3n2C)CC1

1: 91; 2: 108; 3: 114; 4: 80.8; 5: 77.6

* * *

test: reversal of MRP1-mediated doxorubicin resistance, pilot screen, H69AR cells, doxorubicin co-treatment (AID 601); settings: H69AR cells + 2 uM doxorubicin, CellTiter-Glo, 72 h; at 10 µM; stronger effect = higher value
Quantity Measured: differential viability (reversal) (%)
Give bare numbers, in %.

Sample records with differential viability (reversal):
O=S(=O)(c1ccc(N2CCN(c3ccc(F)cc3)CC2)cc1)N1CCCC1
-4.83
Cc1ccc(CNc2cc(-c3nn4c(C)nnc4s3)ccc2C)s1
18.3
COc1ccc(NC(=O)N2CCC(c3nc(-c4cccs4)no3)CC2)cc1
15.4
CCOC(=O)CSc1nc2cc(C(=O)N3CCC(C(N)=O)CC3)ccc2c(=O)n1-c1ccccc1
7.63

Now turn to the next molecule.
What differential viability (reversal) value was documented for this molecule, CCCCOc1ccc(-c2ncc(C(=O)OCC)c(N)n2)cc1 ?
8.43

* * *

assay: growth suppression of yeast trafficking mutant, preliminary HTS, modulators of trafficking downstream of Golgi apparatus project, 1536-format plate, OD 615 nm (AID 637); conditions: yeast transport mutant growth, absorbance 615 nm, 18 h
Activity calls are given as the source filed them. Cut-off read from the data, not from the text of the source: active = inhibition above about 30%; inactive = the rest.
Classes to choose from: active, inactive

Fill in: this test's call for CCOC(=O)c1nnc2cc(-c3ccc(Br)cc3)nn2c1C is ___
inactive

Check the results log: what was the call for Cc1cc(NC(=O)c2ccc3nc(-c4ccccc4)c(-c4ccccc4)nc3c2)no1 ?
inactive
